target: T1, biotinylated synthetic human Amyloid beta 1-42 peptide (human, UniProt P05067 672-713, biotinylated (N-terminal biotin in Example 4)); experiment: HTRF epitope competition; purified scFv titrated; competitor Abet0144-GL IgG1-TM
T1 construct: domain: Amyloid beta 1-42 peptide; Numbers 1-42 count on the Amyloid beta peptide, not on APP; also called biotinylated human Amyloid beta 1-42; N-terminal biotin Abeta 1-42
T1 sequence (P05067 672-713 limits assumed): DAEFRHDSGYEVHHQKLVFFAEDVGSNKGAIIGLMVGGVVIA
Parameter: pIC50. Scope: all listed entries.
In simple prose, pIC50 is minus the logarithm base ten of a concentration in moles per litre.

Abet0328 scFv (scFv, V domains shown, not shown: small tags and cut ends, Purified scFv expressed in E. coli) VH: EVQLLESGGGLVQPGGSLRLSCAASRDPFKADTMWWVRQAPRKRLEWVSVIGAHTTNSAYADSVKGRFTISRDNSKNTLYLQMNSLRAEDTAVYYCAREWMDRSRPYYYYGMDVWGQGTLVTVSS VL: SYELTQPPSVSVSPGQTVSITCSGRNLEDKFASWYQQKPGQSPVLVIYRDDKRPSGVPERFSASNSGHTATLTISGTQATDEADYYCSSQDTVTRVFGGGTKLTVL :: 9.26
Abet0370 scFv (scFv, V domains shown, not shown: small tags and cut ends, Purified scFv expressed in E. coli) VH: EVQLLESGGGLVQPGGSLRLSCAASGFHFPMSAMWWVRQAPGKGLEWVSVIGETPERQAYADSVKGRFTISRDNSKSTLYLQMNSLRAEDTAVYYCAREWMDHSRPYYYYGMDVWGQGTLVTVSS VL: SYELTQPPSVSVSPGQTASITCTTPHFNSKFASWYQQKPGQSPVLVIYRDDKRPSGIPERFSASNSGHTATLTISGTQAMDEADYYCQAQDSTTRVFGGGTRLTVL :: 9.12

Continue with the binder presented below.
## Input Give the value of pIC50 reported for the following: Abet0344 scFv (scFv, V domains shown, not shown: small tags and cut ends, Purified scFv expressed in E. coli) VH: EVQLLESGGGLVQPGGSLSLSCAASGFTFSVYTMWWVRQAPGKGLEWVSVIGGNETRKAYADSVKGRFTISRDNSKNRLYLQMNSLRAEDTAVYYCAREWMDHSRPYYYYGMDVWGQGTLVTVSS VL: QSVLTQPPSVSVSPGQTASITCSGHNLEDKFASWYQQKSGQSPVLVIYRDDKRPSGIPERFSASNSGHTATLTISGTQATDEADYYCATQDNFTRVFGGGTKLTVL
## Output 9.11
